# EXPERIMENTAL_SYSTEM: Mannose-6-phosphate isomerase (Homo sapiens)
# TEST_DESCRIPTION: MPI inhibition at elevated mannose 6-phosphate – biochemical, fluorescence intensity, high mannose 6-phosphate, primary screen (AID 1220)
# RECORDED_CONDITIONS: recombinant PMI enzyme, coupled fluorescence intensity; at 20 µM
Among all 190,000 compounds or so, about 1,300 (0.68%) were called active. Rule as the data show it: active = inhibition above about 50%; inactive = the rest. Many of the other results were omitted from the sample, so actives are more common in it than they were.
Lab note: assign the record to one of T for active, F for inactive

Past entries and their recorded results:
COc1ccc(CNc2ccc(C)c(C)c2)cc1 | F
NC(=O)C1CCN(C(=O)CSc2nc3ccccc3[nH]2)CC1 | F

[in] Outcome logged for CCNC1=C(Cl)C(=O)c2ccccc2C1=O in this assay:
[out] F

[in] Outcome logged for O=C(Nc1ccc2c(c1)CCC2)c1ccccc1F in this assay:
[out] F

[in] Outcome logged for CCCSc1cc(NCCOC(=O)CCC)c([N+](=O)[O-])c2nonc12 in this assay:
[out] T

[in] Outcome logged for CC(=O)OCCNc1cc(SCc2ccco2)c2nonc2c1[N+](=O)[O-] in this assay:
[out] F

[in] Outcome logged for Cc1nnc(Sc2cc(NCCCO)c([N+](=O)[O-])c3nonc23)s1 in this assay:
[out] F

[in] Outcome logged for Cc1nnc(Sc2cc(NCCO)c([N+](=O)[O-])c3nonc23)s1 in this assay:
[out] F

[in] Outcome logged for COc1cc(CNc2ccc(N3CCN(C(C)=O)CC3)cc2)ccc1OCc1ccccc1 in this assay:
[out] F

[in] Outcome logged for COc1ccc(CNS(=O)(=O)NCc2ccc(OC)c(OC)c2)cc1 in this assay:
[out] F

[in] Outcome logged for COc1ccc(NCc2ccc(OC)c(OC)c2)cc1 in this assay:
[out] T

[in] Outcome logged for O=C(/C=C\c1ccco1)Oc1cccc2cccnc12 in this assay:
[out] F

====

# EXPERIMENTAL_SYSTEM: Mannose-6-phosphate isomerase (Homo sapiens) (UniProt P34949)
# Sequence (P34949 whole entry, looked up): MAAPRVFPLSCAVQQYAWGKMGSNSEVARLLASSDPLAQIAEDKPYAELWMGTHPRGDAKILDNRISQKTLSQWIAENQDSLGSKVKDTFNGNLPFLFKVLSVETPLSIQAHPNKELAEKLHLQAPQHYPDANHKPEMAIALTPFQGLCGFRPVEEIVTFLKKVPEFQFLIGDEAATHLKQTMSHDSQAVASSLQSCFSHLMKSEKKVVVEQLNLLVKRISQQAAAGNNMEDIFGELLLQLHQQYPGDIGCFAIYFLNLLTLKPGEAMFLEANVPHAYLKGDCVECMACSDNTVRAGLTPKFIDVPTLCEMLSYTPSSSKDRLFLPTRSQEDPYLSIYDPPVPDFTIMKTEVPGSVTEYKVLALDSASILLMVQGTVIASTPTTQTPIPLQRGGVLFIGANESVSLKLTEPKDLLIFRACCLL
# TEST_DESCRIPTION: MPI inhibition at elevated mannose 6-phosphate – biochemical, fluorescence intensity, high mannose 6-phosphate, primary screen (AID 1220)
# RECORDED_CONDITIONS: recombinant PMI enzyme, coupled fluorescence intensity; at 20 µM; active compounds read high
The whole screen tested about 190,000 compounds, of which about 1,300 (0.68%) were called active. The full list was thinned out, with actives kept by preference.
ASSAY_METRIC: inhibition (%)
Lab book: enter the figure in %, no units written.

COC(=O)c1cccc(NC(=S)N2CCCCC2)c1 | -3.2
CNC(=O)/C(C#N)=C/c1ccc(-c2ccc(OC)cc2[N+](=O)[O-])o1 | 29.2
O=C(/C=C/c1ccc(-c2ccccc2[N+](=O)[O-])o1)c1ccc(Br)cc1 | -32.8
S=C(Nc1ccc2nccnc2c1)N1CCCC1 | 35.6
COc1ccc2cc3cc(C(=O)NCCN4CCN(Cc5ccccc5)CC4)oc3nc2c1 | -5.6
c1ccc(-c2nc3ccccc3[nH]2)nc1 | 15.7

Entry CNC(=O)/C(C#N)=C/c1ccc(-c2ccccc2[N+](=O)[O-])o1 , inhibition reported as 61

Entry N#CCSc1nc2sc3c(c2c(=O)n1C1CCCCC1)CCCC3 , inhibition reported as 52.4

Entry COC(=O)c1cccc(NC(=S)N2CCOCC2)c1 , inhibition reported as 52.1

Entry CSc1sc(C)cc1C1C(C#N)=C(N)N(c2cccnc2)C2=C1C(=O)CC(C)(C)C2 (stereo not drawn) , inhibition reported as 13.9

Entry Cc1nn2c(=O)c(NC(=O)c3ccc(Cl)cc3)cnc2s1 , inhibition reported as 0.6

Entry CCOC(=O)C1(CCc2ccccc2)CCN(Cc2ccc(OC)cc2)CC1 , inhibition reported as 3.3

Entry S=C(Nc1ccc2nccnc2c1)N1CCOCC1 , inhibition reported as 69.2

Entry COCCNC(=O)/C(C#N)=C/c1ccc(-c2ccc(OC)cc2[N+](=O)[O-])o1 , inhibition reported as 42.2

Entry COC(=O)c1cccc(NC(=S)N2CCN(c3ccccc3F)CC2)c1 , inhibition reported as 4.7

Entry O=C(CCn1c(=O)sc2ccccc21)Nc1nccs1 , inhibition reported as 4.8

Entry N#C/C(=C\c1ccc(-c2ccccc2[N+](=O)[O-])o1)C(=O)N1CCOCC1 , inhibition reported as 45.8
